Measured fold change of affinity, listed per entry.
study system: T1, Human CD3eg linker (human)
T1 construct: Single-chain construct; also called recombinant human CD3
T1 chain: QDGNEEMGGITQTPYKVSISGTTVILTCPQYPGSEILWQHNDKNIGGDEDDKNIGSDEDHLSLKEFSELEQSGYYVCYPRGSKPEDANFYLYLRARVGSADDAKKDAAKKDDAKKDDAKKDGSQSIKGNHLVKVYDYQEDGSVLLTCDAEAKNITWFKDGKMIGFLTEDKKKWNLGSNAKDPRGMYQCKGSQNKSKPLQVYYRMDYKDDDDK
test summary: SPR; fold vs parent H183/L072
Report the value in fold with no unit label.

>  <binder>
H183/L072 VL S93Q (antibody, name in Kabat numbering, V domains shown) VH: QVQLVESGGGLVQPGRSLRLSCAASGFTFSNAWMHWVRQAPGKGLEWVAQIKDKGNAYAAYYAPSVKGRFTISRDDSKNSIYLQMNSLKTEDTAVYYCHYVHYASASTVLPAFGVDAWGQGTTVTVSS VL: DIVMTQSPLSLPVTPGEPASISCQASQELVHMNRNTYLHWYQQKPGQAPRLLIYKVSNRFPGVPDRFSGSGSGTDFTLKISRVEAEDVGVYYCAQGTQVPFTFGQGTKLEIK

>  <units symbol>
fold

>  <quantitative result>
1

$$$$

Now take the following binder into account.
response.value for H183/L072 VL Q90K (antibody, name in Kabat numbering, V domains shown) VH: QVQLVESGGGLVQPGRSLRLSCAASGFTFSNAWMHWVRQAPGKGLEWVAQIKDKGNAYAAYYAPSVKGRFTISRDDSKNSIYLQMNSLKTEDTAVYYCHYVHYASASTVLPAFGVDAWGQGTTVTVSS VL: DIVMTQSPLSLPVTPGEPASISCQASQELVHMNRNTYLHWYQQKPGQAPRLLIYKVSNRFPGVPDRFSGSGSGTDFTLKISRVEAEDVGVYYCAKGTSVPFTFGQGTKLEIK (field: fold change of affinity) = 0
